experiment: Plasma pharmacokinetics of tivantinib and metabolites; settings: human, plasma, oral, t½, tivantinib 120/120 mg AM/PM (N = 1), day 1, plasma
quantity: half-life

Query (compound): O=C1NC(=O)[C@@H](c2cn3c4c(cccc24)CCC3)[C@@H]1c1c[nH]c2ccccc12 [tivantinib] ; field requested: half-life
8.2 h

----------
experiment: Plasma pharmacokinetics of tivantinib and metabolites; conditions: human, plasma, oral, Tmax, tivantinib 360/240 mg AM/PM (N = 1), day 1, plasma
quantity: Tmax (h)
# value in h; strip the unit string

Query (molecule): O=C1NC(=O)[C@@H](c2cn3c4c(cccc24)CCC3)[C@@H]1c1c[nH]c2ccccc12 [tivantinib] ; field requested: Tmax
3

----------
test: Plasma pharmacokinetics of tivantinib and metabolites; settings: human, plasma, oral, t½, tivantinib 360/240 mg AM/PM (N = 1), day 1, plasma
quantity: half-life (min)
# value in min; strip the unit string

Query (compound): O=C1NC(=O)[C@@H](c2cn3c4c(cccc24)CCC3)[C@@H]1c1c[nH]c2ccccc12 [tivantinib] ; field requested: half-life
552

----------
test: Plasma pharmacokinetics of tivantinib and metabolites; settings: human, plasma, oral, Tmax, tivantinib 120/120 mg AM/PM (N = 1), day 1, plasma
quantity: Tmax (h)
# value in h; strip the unit string

Query (compound): O=C1NC(=O)[C@@H](c2cn3c4c(cccc24)CCC3)[C@@H]1c1c[nH]c2ccccc12 [tivantinib] ; field requested: Tmax
2.5

----------
assay: Plasma pharmacokinetics of tivantinib and metabolites; conditions: human, plasma, oral, AUC0–8, tivantinib 360/240 mg AM/PM (N = 1), day 1, plasma
quantity: AUC(0-t) (ng·h/mL)
# value in ng·h/mL; strip the unit string

Query (compound): O=C1NC(=O)[C@@H](c2cn3c4c(cccc24)CCC3)[C@@H]1c1c[nH]c2ccccc12 [tivantinib] ; field requested: AUC(0-t)
5020
